Tested on: HepG2 cells
Settings: read-out: MMP assays IC50 (µM) HepG2
# IC50 per record follows

[
  {
    "Molecule": "Nc1nc(N)c(N)c(N)n1.O=S(=O)(O)O [tetra-Aminopyrimidine sulfate]",
    "Tested system": "HepG2 cells",
    "IC50 [µM]": 25.1
  },
  {
    "Molecule": "CO/C=C(/C(=O)OC)c1ccccc1COc1cccc(C(F)(F)F)n1 [Picoxystrobin]",
    "Tested system": "HepG2 cells",
    "IC50 [µM]": 1
  },
  {
    "Molecule": "CCCCCc1cc(O)c2c(c1)OC(C)(C)[C@@H]1CCC(C)=C[C@@H]21",
    "Tested system": "HepG2 cells",
    "IC50 [µM]": 15.5
  },
  {
    "Molecule": "CC1=C(/C=C/C(C)=C/C=C/C(C)=C/C(=O)Nc2ccc(O)cc2)C(C)(C)CCC1",
    "Tested system": "HepG2 cells",
    "IC50 [µM]": 4.89
  },
  {
    "Molecule": "COc1ccc(N)cc1N.O=S(=O)(O)O [2,4-Diaminoanisole sulfate]",
    "Tested system": "HepG2 cells",
    "IC50 [µM]": 7.94
  },
  {
    "Molecule": "CCO[Si](CC(C)C)(OCC)OCC [Triethoxy(2-methylpropyl)silane]",
    "Tested system": "HepG2 cells",
    "IC50 [µM]": 35.5
  },
  {
    "Molecule": "CN(C)c1ccc(C(=C2C=CC(=[N+](C)C)C=C2)c2ccccc2)cc1.CN(C)c1ccc(C(=C2C=CC(=[N+](C)C)C=C2)c2ccccc2)cc1.O=C(O)C(=O)O.O=C([O-])C(=O)O.O=C([O-])C(=O)O [Malachite green oxalate]",
    "Tested system": "HepG2 cells",
    "IC50 [µM]": 27.5
  },
  {
    "Molecule": "CN(C)c1ccc2nc3ccc(=[N+](C)C)cc-3sc2c1 [Methylene blue trihydrate]",
    "Tested system": "HepG2 cells",
    "IC50 [µM]": 4.82
  },
  {
    "Molecule": "O=C1C(I)=CC(=C(c2cc(I)c(O)c(I)c2)c2ccccc2C(=O)O)C=C1I [Iodophthalein sodium]",
    "Tested system": "HepG2 cells",
    "IC50 [µM]": 6.9
  },
  {
    "Molecule": "COc1cc([C@@H]2c3cc4c(cc3[C@@H](O)[C@H]3COC(=O)[C@H]23)OCO4)cc(OC)c1O [4'-Demethylepipodophyllotoxin]",
    "Tested system": "HepG2 cells",
    "IC50 [µM]": 2.18
  },
  {
    "Molecule": "Cc1cc(Nc2ccccc2C(=O)O)ccc1Cl",
    "Tested system": "HepG2 cells",
    "IC50 [µM]": 35.5
  },
  {
    "Molecule": "CC(C)(c1ccccc1)c1ccc(O)c(C(C)(C)c2ccccc2)c1 [2,4-Bis(1-methyl-1-phenylethyl)phenol]",
    "Tested system": "HepG2 cells",
    "IC50 [µM]": 2.82
  },
  {
    "Molecule": "Cl.Cl.Nc1ccc(-c2ccc(N)cc2)cc1 [Benzidine dihydrochloride]",
    "Tested system": "HepG2 cells",
    "IC50 [µM]": 17.7
  },
  {
    "Molecule": "O=[N+]([O-])c1ccc(F)c([N+](=O)[O-])c1 [1-Fluoro-2,4-dinitrobenzene]",
    "Tested system": "HepG2 cells",
    "IC50 [µM]": 5.48
  },
  {
    "Molecule": "O=C(Nc1cccc([N+](=O)[O-])c1)c1cc2ccccc2cc1O",
    "Tested system": "HepG2 cells",
    "IC50 [µM]": 0.28
  },
  {
    "Molecule": "O=C(N[C@@H]1N=C(c2ccccc2F)c2cccc3c2N(CC3)C1=O)c1cc2ccccc2[nH]1",
    "Tested system": "HepG2 cells",
    "IC50 [µM]": 13.8
  },
  {
    "Molecule": "Oc1cc(Cl)c(Cl)cc1Cl.[Na] [2,4,5-Trichlorophenol sodium salt]",
    "Tested system": "HepG2 cells",
    "IC50 [µM]": 10
  },
  {
    "Molecule": "CNC(=O)c1cc(Oc2ccc(NC(=O)Nc3ccc(Cl)c(C(F)(F)F)c3)cc2)ccn1",
    "Tested system": "HepG2 cells",
    "IC50 [µM]": 1.23
  },
  {
    "Molecule": "C=C(C)C(=O)OCC(O)COc1ccc(C(C)(C)c2ccc(OCC(O)COC(=O)C(=C)C)cc2)cc1 (stereo not drawn) [Bisphenol A glycidyl methacrylate]",
    "Tested system": "HepG2 cells",
    "IC50 [µM]": 15.8
  },
  {
    "Molecule": "[F][Sn]([c]1ccccc1)([c]1ccccc1)[c]1ccccc1 [Triphenyltin fluoride]",
    "Tested system": "HepG2 cells",
    "IC50 [µM]": 1.78
  },
  {
    "Molecule": "Cl.Nc1ccc(Nc2ccccc2)cc1",
    "Tested system": "HepG2 cells",
    "IC50 [µM]": 28.2
  }
]
